# Test system: EBC-1
# experimentSummary: In vitro activity in EBC-1 cell line (CTG 120h), Example 12
# Type: cell-based
# experimentalParameters: Homo sapiens, EBC-1, 120 h, EBC1, CTG 120 h, N2
quantityMeasured: IC50 (nM)
// return numeric value only (unit: nM, not printed)

Lab request: please report IC50 under test system EBC-1 for Cc1c(Nc2nc3ccccc3s2)nnc2c1CCCN2c1ccc(-c2cnn(C[C@]34C[C@]5(C)C[C@](C)(C3)C[C@@](OCCNCCCO)(C5)C4)c2C)c(C(=O)O)n1 [P25]
12.4

###

# Tested on: SNU-5
# experimentSummary: In vitro activity in SNU-5 cell line (CTG 120h), Example 6
# Format: cell-based
# experimentalParameters: Homo sapiens, SNU-5, 120 h, SNU-5, CTG 120 h, mean
quantityMeasured: IC50 (µM)
# unit: µM | format: bare number

Find the recorded IC50 belonging to `Cc1c(Nc2nc3ccccc3s2)nnc2c1CCCN2c1ccc(-c2cnn(C[C@]34C[C@]5(C)C[C@](C)(C3)C[C@@](OCCNCCCO)(C5)C4)c2C)c(C(=O)O)n1` and report it.
10.7

###

# maps each entry to its pIC50
# Test system: LU65
# experimentSummary: Lung cancer cell line viability, single agent or 1:1 combination (CTG 120h), Example 7
# Assay type: cell-based
# experimentalParameters: Homo sapiens, Lu-65, 120 h, LU65, CTG 120 h, n1
# Protocol: Cell lines were cultured in the media described above at 37° C. in a humidified atmosphere containing 5% CO2. […] Effect on cell viability was assessed after 5 days of incubation at 37° C./5% CO2 by quantification of cellular ATP levels using CellTiter-Glo reagent (Promega Ref: G7571) at 75 μL reagent/well. […] Luminescence was quantified on a multipurpose plate reader. IC50s were calculated using standard four-parametric curve fitting. […]
API: returns pIC50 as number; meaning -log10 of concentration in mol/L.

compoundString | assayedTarget | pIC50
CC(=O)O[C@H]1C(=O)[C@@]2(C)[C@H]([C@H](OC(=O)c3ccccc3)[C@]3(O)C[C@H](OC(=O)[C@H](O)[C@@H](NC(=O)c4ccccc4)c4ccccc4)C(C)=C1C3(C)C)[C@]1(OC(C)=O)CO[C@@H]1C[C@@H]2O | LU65 | 7.49

What pIC50 value was documented for this molecule, `Cc1c(Nc2nc3ccccc3s2)nnc2c1CCCN2c1ccc(-c2cnn(C[C@]34C[C@]5(C)C[C@](C)(C3)C[C@@](OCCNCCCO)(C5)C4)c2C)c(C(=O)O)n1` ?
5.25

###

# Test system: LU65
# experimentSummary: Lung cancer cell line viability, single agent or 1:1 combination (CTG 120h), Example 7
# Format: cell-based
# experimentalParameters: Homo sapiens, Lu-65, 120 h, LU65, CTG 120 h, n2
quantityMeasured: IC50 (nM)
Numeric answer only, unit nM assumed.

Which IC50 reading was recorded for the compound `CC(=O)O[C@H]1C(=O)[C@@]2(C)[C@H]([C@H](OC(=O)c3ccccc3)[C@]3(O)C[C@H](OC(=O)[C@H](O)[C@@H](NC(=O)c4ccccc4)c4ccccc4)C(C)=C1C3(C)C)[C@]1(OC(C)=O)CO[C@@H]1C[C@@H]2O` ?
27

###

# System: HCC827
# experimentSummary: Lung cancer cell line viability, single agent or 1:1 combination (CTG 120h), Example 7
# Assay type: cell-based
# experimentalParameters: Homo sapiens, HCC827, 120 h, HCC827, CTG 120 h, Mean
quantityMeasured: pIC50
Convention used: pIC50 is expressed as -log10 of the molar concentration.

compoundString | assayedTarget | endpointResult
CC(=O)O[C@H]1C(=O)[C@@]2(C)[C@H]([C@H](OC(=O)c3ccccc3)[C@]3(O)C[C@H](OC(=O)[C@H](O)[C@@H](NC(=O)c4ccccc4)c4ccccc4)C(C)=C1C3(C)C)[C@]1(OC(C)=O)CO[C@@H]1C[C@@H]2O | HCC827 | 8.28

Returns the measured pIC50 for the input compound. Input: `Cc1c(Nc2nc3ccccc3s2)nnc2c1CCCN2c1ccc(-c2cnn(C[C@]34C[C@]5(C)C[C@](C)(C3)C[C@@](OCCNCCCO)(C5)C4)c2C)c(C(=O)O)n1`
6.97

###

The compounds listed here are annotated with their pIC50.
# Test system: NCI-H441
# experimentSummary: Lung cancer cell line viability, single agent or 1:1 combination (CTG 120h), Example 7
# Format: cell-based
# experimentalParameters: Homo sapiens, NCI-H441, 120 h, NCI-H441, CTG 120 h, Mean
# Procedure: Cell lines were cultured in the media described above at 37° C. in a humidified atmosphere containing 5% CO2. […] Effect on cell viability was assessed after 5 days of incubation at 37° C./5% CO2 by quantification of cellular ATP levels using CellTiter-Glo reagent (Promega Ref: G7571) at 75 μL reagent/well. […] Luminescence was quantified on a multipurpose plate reader. IC50s were calculated using standard four-parametric curve fitting. […]
pIC50 field: float, defined as -log10 of concentration (mol/L).

Could you share which pIC50 value was measured for `CC(=O)O[C@H]1C(=O)[C@@]2(C)[C@H]([C@H](OC(=O)c3ccccc3)[C@]3(O)C[C@H](OC(=O)[C@H](O)[C@@H](NC(=O)c4ccccc4)c4ccccc4)C(C)=C1C3(C)C)[C@]1(OC(C)=O)CO[C@@H]1C[C@@H]2O` ?
8.19

Returns the measured pIC50 for the input compound. Input: `Cc1c(Nc2nc3ccccc3s2)nnc2c1CCCN2c1ccc(-c2cnn(C[C@]34C[C@]5(C)C[C@](C)(C3)C[C@@](OCCNCCCO)(C5)C4)c2C)c(C(=O)O)n1`
5.99

###

# Tested on: H1650 cells
# experimentSummary: In vitro activity in H1650 cell line (3D, CTG 120h), Example 12
# Format: cell-based
# experimentalParameters: Homo sapiens, NCI-H1650, 120 h, H1650 3D, N1
quantityMeasured: IC50 (nM)
Please state the figure in nM; there is no need to write the unit.

State the recorded IC50 for this entry: `Cc1c(Nc2nc3ccccc3s2)nnc2c1CCCN2c1ccc(-c2cnn(C[C@]34C[C@]5(C)C[C@](C)(C3)C[C@@](OCCNCCCO)(C5)C4)c2C)c(C(=O)O)n1`
8.28

###

# System: H1650 cells
# experimentSummary: In vitro activity in H1650 cell line (3D, CTG 120h), Example 6
# Type: cell-based
# experimentalParameters: Homo sapiens, NCI-H1650, 120 h, H1650 3D, n = 1
quantityMeasured: IC50 (nM)
I only need the number, in nM, no unit after it.

Given `Cc1c(Nc2nc3ccccc3s2)nnc2c1CCCN2c1ccc(-c2cnn(C[C@]34C[C@]5(C)C[C@](C)(C3)C[C@@](OCCNCCCO)(C5)C4)c2C)c(C(=O)O)n1` , state its recorded IC50.
1.47

###

# Test system: EBC-1
# experimentSummary: In vitro activity in EBC-1 cell line (CTG 120h), Example 12
# Assay type: cell-based
# experimentalParameters: Homo sapiens, EBC-1, 120 h, EBC1, CTG 120 h, N1
quantityMeasured: IC50 (nM)
Numeric only. Scale: nM

Item `Cc1c(Nc2nc3ccccc3s2)nnc2c1CCCN2c1ccc(-c2cnn(C[C@]34C[C@]5(C)C[C@](C)(C3)C[C@@](OCCNCCCO)(C5)C4)c2C)c(C(=O)O)n1` has what recorded IC50?
12.8
